Entry source: the RNAGym collection of RNA variant scans (doi:10.1038/s41586-018-0170-7)

Parameter: yeast fitness (ln). Scope: all listed entries.
B1: tRNA (parent)
chain: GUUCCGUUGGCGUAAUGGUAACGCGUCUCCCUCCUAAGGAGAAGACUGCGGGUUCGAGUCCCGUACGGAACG

- Variants of: B1
- ASSAY_METHOD_TEXT: yeast fitness, log relative to wild type (ln ratio); higher = fitter; tRNA-Arg(CCU), competitive growth, 37 C, 1 M NaCl
The answer should be written as a number, with no unit following it.

# count of solved cases: 5
Value of measured yeast fitness (ln) for the entry G6A C27U C66A A70G : -0.136

// sample U2C A43C A70G , its yeast fitness (ln) was -0.00562

yeast fitness (ln) reported for this variant G1A A43C A69G : -0.145

The value of yeast fitness (ln) measured for the variant G1A U2C C27U C46U A69G A70G turned out to be -0.122

In plain terms, G1A G6A A43C C66U A69G A70G C71U has a documented yeast fitness (ln) of -0.245

Continuing:
Quick note, yeast fitness (ln) for G6U C27U A43C C71U landed at -0.281

yeast fitness (ln) reported for this variant G1A A70U : -0.044

Noted for G6U C27U C66A A69G A70U : its yeast fitness (ln) reads -0.213

Reported yeast fitness (ln) of U2G G6A C27U A43C C46U C66A A70U C71U : -0.331

# yeast fitness (ln) of G6U C66U A69G A70U C71U = -0.481

The recorded yeast fitness (ln) for entry U2C G6U C46U A69G C71U equals -0.0672
